# measured.on: calpain-I isolated from human erythrocytes (Homo sapiens)
# Construct: calpain-I—isolated from human erythrocytes
# measurement.protocol: Calpain I enzyme inhibition in vitro (kinetic fluorescence assay)
# condition.summary: apparent Ki from IC50 (Cheng-Prussoff); 20 nM calpain-I, 100 μM Suc-Leu-Tyr-AMC, pH 7.3, room temperature
pKi: −log10 of the molar value.
Form field: pKi (one value per entry).

# compound, pKi
records = [
    ("CCNC(=O)C(=O)C(Cc1ccccc1)NC(=O)[C@H]1CCC(=O)N1Cc1ccccc1C(F)(F)F (mixture of isomers)", "6.22 to 7.00"),
    ("CCNC(=O)C(=O)C(Cc1ccccc1)NC(=O)[C@H]1CCC(=O)N1Cc1c(F)cccc1F (mixture of isomers)", "6.22 to 7.00"),
    ("CCNC(=O)C(=O)C(Cc1ccccc1)NC(=O)[C@H]1CCC(=O)N1Cc1ccccc1Cl (mixture of isomers)", "6.22 to 7.00"),
    ("NC(=O)C(=O)C(Cc1ccccc1)NC(=O)[C@H]1CCCC(=O)N1Cc1ccccc1 (stereo partly shown)", "7.00 to 7.30"),
]

###

Form field: pKi (one value per entry).
# measured.on: calpain-I isolated from human erythrocytes (Homo sapiens, UniProt P07384)
# Construct: calpain-I—isolated from human erythrocytes
# measurement.protocol: Calpain I enzyme inhibition in vitro (kinetic fluorescence assay)
# condition.summary: apparent Ki from IC50 (Cheng-Prussoff); 20 nM calpain-I, 100 μM Suc-Leu-Tyr-AMC, pH 7.3, room temperature
pKi: −log10 of the molar value.
observable: pKi

# compound, observable, meas.value
measured = [
    ("NC(=O)C(=O)C(Cc1ccccc1)NC(=O)[C@H]1CCC(=O)N1Cc1ccccc1C(F)(F)F (stereo partly shown)", "pKi", "7.00 to 7.30"),
    ("O=C(NC1CC1)C(=O)C(Cc1ccccc1)NC(=O)[C@H]1CCC(=O)N1Cc1ccccc1C(F)(F)F (mixture of isomers)", "pKi", "7.00 to 7.30"),
    ("O=C(NC1CC1)C(=O)C(Cc1ccccc1)NC(=O)[C@H]1CCC(=O)N1Cc1ccc(C(F)(F)F)cc1 (mixture of isomers)", "pKi", "6.22 to 7.00"),
    ("NC(=O)C(=O)C(Cc1ccccc1)NC(=O)c1cccc(=O)n1Cc1ccccc1 (stereo not shown)", "pKi", "7.00 to 7.30"),
]

###

# measured.on: calpain-I isolated from human erythrocytes (Homo sapiens)
# Construct: calpain-I—isolated from human erythrocytes
# measurement.protocol: Calpain I enzyme inhibition in vitro (kinetic fluorescence assay)
# condition.summary: apparent Ki from IC50 (Cheng-Prussoff); 20 nM calpain-I, 100 μM Suc-Leu-Tyr-AMC, pH 7.3, room temperature
Form field: Ki (one value per entry).

# molecule, Ki
measured = [
    ("O=C(NCc1ccc(C(F)(F)F)cc1)C(=O)C(Cc1ccccc1)NC(=O)[C@H]1CCC(=O)N1Cc1ccccc1 (mixture of isomers) [Example 68]", "0.1 to 0.6 µM"),
    ("COc1cccc(C(F)(F)F)c1CN1C(=O)CC[C@@H]1C(=O)NC(Cc1ccccc1)C(=O)C(N)=O (stereo partly shown) [Example 50]", "< 0.05 µM"),
    ("O=C(NCc1ccncc1)C(=O)C(Cc1ccccc1)NC(=O)[C@H]1CCC(=O)N1Cc1ccccc1 (mixture of isomers) [Example 63]", "0.05 to 0.1 µM"),
    ("COc1cccc(CN2C(=O)CC[C@@H]2C(=O)NC(Cc2ccccc2)C(=O)C(N)=O)c1 (stereo partly shown) [Example 6]", "< 0.05 µM"),
]

###

# measured.on: calpain-I isolated from human erythrocytes (Homo sapiens)
# Construct: calpain-I—isolated from human erythrocytes
# Sequence (P07384 1-714): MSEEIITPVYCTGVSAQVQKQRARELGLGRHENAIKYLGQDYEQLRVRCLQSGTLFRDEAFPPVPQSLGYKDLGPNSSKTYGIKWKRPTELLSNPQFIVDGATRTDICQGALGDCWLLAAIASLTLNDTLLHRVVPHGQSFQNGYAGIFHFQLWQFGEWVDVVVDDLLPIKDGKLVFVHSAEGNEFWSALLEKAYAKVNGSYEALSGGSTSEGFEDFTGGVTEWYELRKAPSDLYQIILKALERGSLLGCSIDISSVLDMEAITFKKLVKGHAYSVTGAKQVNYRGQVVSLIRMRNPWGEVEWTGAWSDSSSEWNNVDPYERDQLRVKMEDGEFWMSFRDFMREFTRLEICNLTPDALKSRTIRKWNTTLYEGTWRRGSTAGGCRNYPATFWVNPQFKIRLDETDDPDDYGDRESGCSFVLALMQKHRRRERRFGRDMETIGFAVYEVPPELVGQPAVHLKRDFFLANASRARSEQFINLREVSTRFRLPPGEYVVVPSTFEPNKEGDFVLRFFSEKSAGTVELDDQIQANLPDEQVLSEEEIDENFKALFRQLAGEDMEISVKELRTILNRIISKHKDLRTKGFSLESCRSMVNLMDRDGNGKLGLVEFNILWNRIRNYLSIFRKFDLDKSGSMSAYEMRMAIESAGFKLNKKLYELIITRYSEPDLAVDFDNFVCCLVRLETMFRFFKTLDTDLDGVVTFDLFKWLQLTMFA
# Sequence (P04632 1-268 partner): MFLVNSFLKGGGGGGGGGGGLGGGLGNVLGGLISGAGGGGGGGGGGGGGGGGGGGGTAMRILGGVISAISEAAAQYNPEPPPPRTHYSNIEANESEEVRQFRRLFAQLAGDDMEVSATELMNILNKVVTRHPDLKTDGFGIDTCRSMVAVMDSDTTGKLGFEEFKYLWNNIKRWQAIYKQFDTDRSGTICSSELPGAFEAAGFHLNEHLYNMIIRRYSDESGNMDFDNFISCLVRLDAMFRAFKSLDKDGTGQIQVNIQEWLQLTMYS
# measurement.protocol: Calpain I enzyme inhibition in vitro (kinetic fluorescence assay)
# condition.summary: apparent Ki from IC50 (Cheng-Prussoff); 20 nM calpain-I, 100 μM Suc-Leu-Tyr-AMC, pH 7.3, room temperature
Form field: Ki (one value per entry).
observable: Ki

# compound, measured.on, meas.value
records = [
    ("O=C(NCc1cncs1)C(=O)C(Cc1ccccc1)NC(=O)[C@H]1CCC(=O)N1Cc1ccccc1 (mixture of isomers)", "calpain-I isolated from human erythrocytes (Homo sapiens)", "100 to 600 nM"),
    ("NC(=O)C(=O)C(Cc1ccccc1)NC(=O)[C@H]1CCC(=O)N1Cc1ccc2ccccc2c1 (stereo partly drawn)", "calpain-I isolated from human erythrocytes (Homo sapiens)", "< 50 nM"),
    ("O=C(NCCCc1ccccn1)C(=O)C(Cc1ccccc1)NC(=O)[C@H]1CCC(=O)N1Cc1ccccc1 (mixture of isomers)", "calpain-I isolated from human erythrocytes (Homo sapiens)", "50 to 100 nM"),
    ("O=C(C(=O)N1CCOCC1)C(Cc1ccccc1)NC(=O)[C@H]1CCC(=O)N1Cc1ccccc1 (mixture of isomers)", "calpain-I isolated from human erythrocytes (Homo sapiens)", "100 to 600 nM"),
    ("O=C(NNC(=O)c1ccccc1)C(=O)C(Cc1ccccc1)NC(=O)[C@H]1CCC(=O)N1Cc1ccccc1 (mixture of isomers)", "calpain-I isolated from human erythrocytes (Homo sapiens)", "50 to 100 nM"),
    ("CCNC(=O)C(=O)C(Cc1ccccc1)NC(=O)[C@H]1CCC(=O)N1Cc1ccccc1 (stereo partly drawn)", "calpain-I isolated from human erythrocytes (Homo sapiens)", "100 to 600 nM"),
    ("CNC(=O)C(=O)C(Cc1ccccc1)NC(=O)[C@H]1CCC(=O)N1Cc1ccccc1 (mixture of isomers)", "calpain-I isolated from human erythrocytes (Homo sapiens)", "100 to 600 nM"),
    ("CCNC(=O)C(=O)C(Cc1ccccc1)NC(=O)[C@H]1CCC(=O)N1Cc1ccc(C(F)(F)F)cc1 (mixture of isomers)", "calpain-I isolated from human erythrocytes (Homo sapiens)", "100 to 600 nM"),
    ("CN1C[C@H](C(=O)NC(Cc2ccccc2)C(=O)C(N)=O)N(Cc2ccccc2)C1=O (stereo partly drawn)", "calpain-I isolated from human erythrocytes (Homo sapiens)", "100 to 600 nM"),
    ("COc1cccc(C(F)(F)F)c1CN1C(=O)CC[C@@H]1C(=O)NC(Cc1ccccc1)C(=O)C(=O)NCc1ccccn1 (mixture of isomers)", "calpain-I isolated from human erythrocytes (Homo sapiens)", "100 to 600 nM"),
    ("O=C(NCCCc1ccccc1)C(=O)C(Cc1ccccc1)NC(=O)[C@H]1CCC(=O)N1Cc1ccccc1 (mixture of isomers)", "calpain-I isolated from human erythrocytes (Homo sapiens)", "50 to 100 nM"),
    ("NC(=O)C(=O)C(Cc1ccccc1)NC(=O)[C@H]1CCC(=O)N1Cc1ccc(F)cc1 (stereo partly drawn)", "calpain-I isolated from human erythrocytes (Homo sapiens)", "50 to 100 nM"),
    ("O=C(NC[C@@H]1CCCO1)C(=O)C(Cc1ccccc1)NC(=O)[C@H]1CCC(=O)N1Cc1ccccc1 (stereo partly drawn)", "calpain-I isolated from human erythrocytes (Homo sapiens)", "50 to 100 nM"),
    ("O=C(NC1CCCCC1)C(=O)C(Cc1ccccc1)NC(=O)[C@H]1CCC(=O)N1Cc1ccccc1 (mixture of isomers)", "calpain-I isolated from human erythrocytes (Homo sapiens)", "50 to 100 nM"),
    ("NC(=O)C(=O)C(Cc1ccccc1)NC(=O)[C@H]1CCC(=O)N1Cc1cccc(OC(F)(F)F)c1 (stereo partly drawn)", "calpain-I isolated from human erythrocytes (Homo sapiens)", "100 to 600 nM"),
]
